- Tested on: HeLa
- assay: In vitro cytotoxicity against HeLa S3 cell lines, treated for 3 days then uptake of neutral red dye was measured
- Assay type: functional, cell-based
- protocol-conditions: Homo sapiens, 72 h
pIC50: −log10 of the molar value.
recorded-endpoint: pIC50

Worked set:
Query: Checklist item: pIC50 tested on HeLa, entry CCCCc1c(F)c(N)c2c(=O)cc(-c3ccc(N)c(F)c3)oc2c1F , value?
Result: < 4.00

Query: Which pIC50 is reported with HeLa for this entry: Nc1ccc(-c2cc(=O)c3c(N)c(F)c(Cl)c(F)c3o2)cc1F ?
Result: < 4.00

Query: I'm curious: which pIC50 was measured for Cc1c(F)c(N)c2c(=O)cc(-c3ccc(N)c(F)c3)oc2c1F tested on HeLa?
Result: < 4.00

***
Query: Query pIC50 on HeLa for CN(C)CCOc1c(F)c(N)c2c(=O)cc(-c3ccc(N)c(F)c3)oc2c1F
Result: 5.82

Query: Item: CCCCCCCCCCCCCCCCCC(=O)OCc1c(F)c(N)c2c(=O)cc(-c3ccc(N)c(F)c3)oc2c1F Test system: HeLa Read-out: pIC50 Value: ?
Result: < 4.00

Query: pIC50 of CN(C)c1c(F)c(N)c2c(=O)cc(-c3ccc(N)c(F)c3)oc2c1F on HeLa?
Result: < 4.00
